These measurements were taken from patent US4303640A.

Kindly state solubility for each of the entries shown.
test: physchem; conditions: water
Numbers only, in µg/mL.

Use the examples below as a reference point.
COMPOUND: CCOC(=O)C(SP(=S)(OC)OC)c1ccccc1 (centres unmarked)
solubility (µg/mL): 4

COMPOUND: COP(=S)(OC)Oc1ccc([N+](=O)[O-])c(C)c1
solubility (µg/mL): 5

COMPOUND: COP(=S)(OC)Oc1ccc(C#N)cc1
solubility (µg/mL): 28

Let us move to another entry and its solubility.
Entry CCOC(=O)CC(SP(=S)(OC)OC)C(=O)OCC (centres unmarked) , solubility reported as 145
